Target: Grb2 SH2 (UniProt P62993)
Experiment: SH2 binding enrichment of the phosphorylated peptide, bacterial display (enrichment ratio); higher = better substrate or ligand; peptides without Tyr show the background
readout: SH2 binding enrichment

Worked examples follow.
FASTGYGIAIQ [GRIN2B_Y762]: 0.721
GSRGKCSSGFR [ATM_Y332_Y332C]: 1.06
CTTIHYFFMCN [TP53_Y234_N235Y_YF]: 0.894
IGEGTYGVVYK [CDK2_Y15]: 0.73
YCRITYDIFPF [INTS13_Y67_M66T]: 0.847

(I) NQSVRYDSSLK [ABCC8_Y1353_L1349Q]
(II) YLNSSYINIST [IL23R_Y178_T175N]
Ask: Just curious, which one has the larger SH2 binding enrichment reading, I or II ? Select an item and report its label.
Result: II

(A) QDLLLYQTHSE [PKHD1_Y255_F253L]
(B) VFPATYHPDHW [EFCAB12_Y544_YF]
Ask: Kindly identify the item with the lower SH2 binding enrichment figure among these two: A and B Indicate your choice by writing its label.
Result: A

* * *

System: Fer (mouse);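 note: 11-residue human phosphosite peptides and single-mutation variants displayed on the E. coli surface, counted by deep sequencing, each peptide's frequency after selection divided by its frequency in the unselected input library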;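 note: frequency after pTyr selection over input frequency; kinase dosed for 20-30% of maximal phosphorylation in three min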
Experiment: phosphorylation enrichment, bacterial display (enrichment ratio); higher = better substrate or ligand; peptides without Tyr show the background
Reported phosphorylation enrichment values for the following sequences.
Reply with the value as a number alone.

Past entries and their recorded results:
MDYRSYPREYG [RBM10_Y44]: 0.331
ILDEAYVMAIV [EGFR_Y764_S768I]: 0.968
GRGMPYGGRGD [TGM1_Y312_R307G]: 0.399
CTTIHYDFMCN [TP53_Y234_N235D_YF]: 1.05
LRRREYQRQDF [PRKRIP1_Y90_YF]: 0.563

Ask: Find the recorded phosphorylation enrichment belonging to MVTSGYKAKMI [EFR3A_Y447_T451M] and report it.
Result: 0.393

* * *

Target: c-Src SH2
Experiment: SH2 binding enrichment of the phosphorylated peptide, bacterial display (enrichment ratio); higher = better substrate or ligand; peptides without Tyr show the background
readout: SH2 binding enrichment

ARSHIYTFSSC [MEFV_Y741_A744S]: 0.751
CGQDPYIRELG [UROS_Y19]: 0.563
FCVVRYCWLRR [MPZ_Y181_Y177C]: 0.539
TVHCDYLNIPH [TAF1L_Y1385]: 0.718
THQNSYQPGRK [CEFIP_Y210]: 0.673
ANSSFHSTRSA [NUMA1_Y1836_Y1836H]: 0.528
PIYEGYGLPHA [ACTA1_Y171_A172G]: 0.739

* * *

Target: SHP2-C SH2
Assay: SH2 binding enrichment of the phosphorylated peptide, bacterial display (enrichment ratio); higher = better substrate or ligand; peptides without Tyr show the background
readout: SH2 binding enrichment

LSCLAYSGKDA [FXN_Y205_S202C]: 0.626
DKITQYVEEVK [STX2_Y49]: 0.752

(P) GGGGGYNCSSG [FUS_Y232_R234C]
(Q) VNKIFYPDFIV [LIG3_Y768_YF]
(R) GRIHSYRGHLW [VHL_Y112_R107G]
(S) QRAADYFSQQM [GBP6_Y333_YF]
Ask: Number of sequences to sort: 4. Sort criterion: SH2 binding enrichment, ascending. Order the labels as requested and list them.
Result: S, P, Q, R
(S: 0.353, P: 0.613, Q: 0.919, R: 1.99)

(I) EGLRRYLENGK [HLA-A_Y195_W191G]
(II) VPLLEYYRDIF [CDAN1_Y712]
(III) FIGCIYLYLTK [GARS1_Y414_R412C]
(IV) YLNSSYINIST [IL23R_Y178_T175N]
Ask: Arrange these 4 sequences in increasing order of SH2 binding enrichment. Output the labels ranked as instructed.
Result: I, II, III, IV
(I: 0.615, II: 0.968, III: 1.53, IV: 2.57)

(a) KDQPDYKYQPR [SOX9_Y172_H169Q]
(b) CGQDPYIRELG [UROS_Y19]
(c) FIILIYAMKKK [SLCO1B1_Y645_YF]
Ask: Sort ascending by SH2 binding enrichment. Quick reminder: the answer is the labels in the order asked.
Result: b, a, c

(A) MDDDQYALLTT [EFCAB6_Y675]
(B) FLAVGDHKPHI [IDS_Y225_Y225D]
(C) CTTNHYNYMCN [TP53_Y234_I232N]
Ask: Order the records so the highest SH2 binding enrichment appears first and the lowest last. Submit the labels in the order that the ranking request calls for.
Result: C, B, A
(C: 2.42, B: 0.857, A: 0.544)
